Biological target: SIX1 homeodomain (reference allele) (human, UniProt Q15475 108-198)
Sequence: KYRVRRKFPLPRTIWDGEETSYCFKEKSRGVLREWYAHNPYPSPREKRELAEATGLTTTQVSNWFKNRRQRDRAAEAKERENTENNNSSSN
Test: universal protein binding microarray; Universal all-10-mer PBM (8x60K, AMADID 030236), 300 nM GST-tagged protein, Alexa Fluor 488 anti-GST; buffer, salt, pH and temperature not stated (as in Berger); high values mean tight binding
Conditions: protein: ivt; tags: N-terminal GST; dsDNA, one strand shown
In all, about 33,000 sequences were measured (“e-score”: median about -0.053, highest 2% from about 0.38 on). This excerpt belongs to a sample that is enriched for the highest values.
metric: binding signal

# residue sequence, metric, result
measured = [
    ("GTCTCGTA", "binding signal", "0.172 E-score"),
    ("AGGGATCC", "binding signal", "0.386 E-score"),
    ("ATATAGTA", "binding signal", "0.304 E-score"),
    ("ATACTTTC", "binding signal", "0.16 E-score"),
    ("AAGGATCC", "binding signal", "0.35 E-score"),
]

binding signal reported for this sequence GGGCTCAC : 0.268 E-score

The sequence listed as ATACGGAG has a reported binding signal of 0.193 E-score

====

Target: SIX1 homeodomain (reference allele) (human, UniProt Q15475 108-198)
Sequence: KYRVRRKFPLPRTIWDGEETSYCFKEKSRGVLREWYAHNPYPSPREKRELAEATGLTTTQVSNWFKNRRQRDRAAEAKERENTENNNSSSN
Assay: universal protein binding microarray; Universal all-10-mer PBM (8x60K, AMADID 030236), 300 nM GST-tagged protein, Alexa Fluor 488 anti-GST; buffer, salt, pH and temperature not stated (as in Berger); high values mean tight binding
Conditions: protein: ivt; tags: N-terminal GST; dsDNA, one strand shown
Over roughly 33,000 sequences, “e-score” has its median near -0.053; the highest 2% begin near 0.38. This excerpt belongs to a sample that is enriched for the highest values.
Classify by measured binding signal: Satisfied if it is equal to or exceeds 0.3 E-score, Not satisfied if it is smaller.

Reference set, count: 6
# residue sequence, class label
data = [
    ("TATCTCCA", "Not satisfied"),
    ("GCATATCA", "Satisfied"),
    ("AGGTATCG", "Satisfied"),
    ("ATACGGAC", "Not satisfied"),
    ("GATAGGAC", "Not satisfied"),
    ("TAGGATCA", "Satisfied"),
]

# check: binding signal of AAGGATCT is greater than or equal to 0.3 E-score
Not satisfied

Has GTAATCTA a recorded binding signal greater than or equal to 0.3 E-score?
Not satisfied

Does the sequence TACTGCAA have recorded binding signal that is 0.3 E-score or more?
Not satisfied

Please check the record CAATACCG and state if its binding signal is at or above 0.3 E-score.
Satisfied

Identify whether the reported binding signal of the following sequence is 0.3 E-score or greater: AAGGATCA
Satisfied

Can CAACTATC be said to have binding signal at or above 0.3 E-score?
Not satisfied

====

Biological target: SIX1 homeodomain (reference allele) (human, UniProt Q15475 108-198)
Sequence: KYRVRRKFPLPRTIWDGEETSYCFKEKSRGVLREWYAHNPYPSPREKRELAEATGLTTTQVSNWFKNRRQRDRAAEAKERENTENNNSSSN
Experiment: universal protein binding microarray; Universal all-10-mer PBM (8x60K, AMADID 030236), 300 nM GST-tagged protein, Alexa Fluor 488 anti-GST; buffer, salt, pH and temperature not stated (as in Berger); high values mean tight binding
Conditions: protein: ivt; tags: N-terminal GST; dsDNA, one strand shown
Whole data set: some 33,000 sequences, median “e-score” near -0.053, cut for the highest 2% near 0.38. Shown is part of a subset that was picked to be rich in the highest values.
One threshold, 0.3 E-score, splits the recorded binding signal values: lower ones are t, equal or higher ones are f.

Answered examples (3):
# residue sequence, class label
data = [
    ("CGGTGTGA", "t"),
    ("TATGATAA", "t"),
    ("TATCCATA", "f"),
]

Lab note: confirm whether the reported binding signal for this sequence is below 0.3 E-score, equality not counting. sequence: CAGTGATC
f

For GAGTGATC , is the recorded binding signal below the cut-off of 0.3 E-score?
f

Dear reviewer, please state whether GGTTTCGA has binding signal strictly beneath 0.3 E-score.
t

Decide: binding signal of ATATGGGG strictly below 0.3 E-score?
f

# check: binding signal < 0.3 E-score for AGCTGGAT
t

Record GCGTGATA : is its binding signal strictly below 0.3 E-score?
f

Is binding signal strictly under 0.3 E-score for the entry ATCTGTGC ?
t

Does ACCTATAT have binding signal strictly under 0.3 E-score?
t

Bench note: check whether ATATCTGC shows binding signal below 0.3 E-score
f

Strictly below 0.3 E-score: is that where binding signal of CAGTATGA sits?
t

Bench note: check whether AATATCCG shows binding signal below 0.3 E-score
f

Could you please tell me whether binding signal recorded for CCGAAACC is less than 0.3 E-score?
t

Input GATACGGA ; condition: binding signal strictly below 0.3 E-score. Does it hold?
f

For AAAGATAC , is the recorded binding signal below the cut-off of 0.3 E-score?
f

Does GTGTCGCA have binding signal strictly under 0.3 E-score?
t

A record lists AACCGATC . Is its binding signal below 0.3 E-score?
f

Field: below-cutoff. Rule: recorded binding signal strictly less than 0.3 E-score. Subject: AGATCACT
f

State whether 0.3 E-score exceeds binding signal recorded for CCTCATCG .
t

====

Target: SIX1 homeodomain (reference allele) (human, UniProt Q15475 108-198)
Sequence: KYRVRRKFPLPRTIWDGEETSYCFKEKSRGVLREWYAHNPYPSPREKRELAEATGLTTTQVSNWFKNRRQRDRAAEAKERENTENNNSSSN
Assay: universal protein binding microarray; Universal all-10-mer PBM (8x60K, AMADID 030236), 300 nM GST-tagged protein, Alexa Fluor 488 anti-GST; buffer, salt, pH and temperature not stated (as in Berger); high values mean tight binding
Conditions: protein: ivt; tags: N-terminal GST; dsDNA, one strand shown
The full ranking holds about 33,000 sequences; the median of “e-score” is about -0.053, and the highest 2% start at about 0.38. Shown is part of a subset that was picked to be rich in the highest values.
Consider the reported binding signal of an entry and match it to a band in LOW: < 0.2 E-score; MID: ≥ 0.2 E-score and < 0.3 E-score; HIGH: ≥ 0.3 E-score

# residue sequence, class label
measured = [
    ("GATATTCA", "MID"),
    ("ACACCTCC", "HIGH"),
    ("TACACTGA", "LOW"),
    ("CGGAGATC", "HIGH"),
    ("AAGGTATT", "MID"),
]

Please report the category associated with GATGGGTA , nothing else.
MID

Assign a category based on measured binding signal for AACACCAG and give only the class name.
LOW

Each sequence maps to one class by binding signal. Which class for CCAGGATA ?
HIGH

Hi, small favor: classify CATATACC by its binding signal when you get a moment.
MID

// return the class label for ACAGGATA
MID

Categorize the following entry: ATAGAGGA
LOW

Which category fits this record: GAGGTATC
HIGH

Hi, small favor: classify AGAGGATA by its binding signal when you get a moment.
HIGH

Class (by measured binding signal) for GATATTCC
HIGH

Category lookup for the sequence CCCCATCG
LOW

Kindly identify the class of CAGAACAA .
LOW

Band of ATACAAGA ?
MID

Classify this sequence: CGAGGATC
HIGH

Band for CGAGGATA ?
HIGH

Quick check: band for GTACACGA
LOW

Which bin, given its binding signal, does GGGTTAGA occupy?
LOW

Lab log: AATATACA — assign binding signal category
MID

Categorize the following entry: GCAGGATA
HIGH

Field: class (binding signal) — entry: TCTCCAGA
LOW

Hi, small favor: classify AATATACC by its binding signal when you get a moment.
HIGH

Pick a category. Item: GATATACC
HIGH

Assign a category based on measured binding signal for CAGGTATA and give only the class name.
MID

Sort ATAGGATC into one of the categories.
HIGH

====

Molecular target: SIX1 homeodomain (reference allele) (human, UniProt Q15475 108-198)
Sequence: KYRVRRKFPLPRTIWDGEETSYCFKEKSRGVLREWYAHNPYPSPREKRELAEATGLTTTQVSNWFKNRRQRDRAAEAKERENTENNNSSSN
Assay: universal protein binding microarray; Universal all-10-mer PBM (8x60K, AMADID 030236), 300 nM GST-tagged protein, Alexa Fluor 488 anti-GST; buffer, salt, pH and temperature not stated (as in Berger); high values mean tight binding
Details: protein: ivt; tags: N-terminal GST; dsDNA, one strand shown
Whole data set: some 33,000 sequences, median “e-score” near -0.053, cut for the highest 2% near 0.38. The full list was thinned out, with the highest values kept by preference.
metric: binding signal (E-score)
Number in E-score, nothing else.

# residue sequence, binding signal, E-score
records = [
    ("ACCGAGAT", 0.265),
    ("AATACCGC", 0.386),
    ("ACCCGATA", 0.4),
    ("GATCACGA", 0.273),
    ("AATACCTA", 0.289),
]

Entry ATATATGA : binding signal on SIX1 homeodomain (reference allele) (human, UniProt Q15475 108-198) = 0.233

Reported SIX1 homeodomain (reference allele) (human, UniProt Q15475 108-198) binding signal for item CCACGATC was 0.195
